C@12 hr overview
conditions: mouse, in vivo
Include the unit after the number when you answer.

Below, each entry is followed by its recorded C@12 hr result.
[2H]C([2H])(c1cc(Cl)ccc1N)N1CCN(C(=O)CNC(=O)C2CC23CCC(F)(F)CC3)CC1 (single isomer, unassigned; (-)) [(−)-1413]	2.0 µM
CS(=O)(=O)c1ccc(COc2ccc(Cl)cc2CN2CCN(C(=O)CNC(=O)C3CC34CCC(F)(F)CC4)CC2)cc1 (single isomer, unassigned; (-)) [(−)-1476]	4.7 µM
[2H]C([2H])(c1cc(Cl)ccc1NCc1ccc(S(C)(=O)=O)cc1)N1CCN(C(=O)CNC(=O)C2CC23CCC(F)(F)CC3)CC1 (single isomer, unassigned; (-)) [(−)-1503]	5.7 µM

IN: Record request: C@12 hr value, item [2H]C([2H])(c1cc(Cl)ccc1N)N1CCN(C(=O)CNC(=O)CC2CCC(F)(F)CC2)CC1
OUT: 1.7 µM

IN: Can you look up the measured C@12 hr of CS(=O)(=O)c1ccc(COc2ccc(Cl)cc2CN2CCN(C(=O)CNC(=O)C3CC34CCC(F)(F)CC4)CC2)cc1 (centres unmarked) [Compound 1476] for me?
OUT: 14 µM

Values compiled from patent US11629139B2.
